Attribution: paper PMC5540273

# Test system: MEK5;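 also: KINOMEscan kinase panel screen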
# Construct: gene MAP2K5
# run-conditions: concentration: 1 μM, replicates: in singlicate; n = 1
Reported %Inh values follow for various compounds
Express your answer in %, writing the number without its unit.

Examples with answers:
                                   compound  result_type  value_units  recorded_result
0  O=C(c1ccc(-c2cc(-c3c[nH]nc3-c3ccccn3)ccn2)cc1)N1CCCC1         %Inh            %               30
1       CC(C)(C)c1ccc(-n2cnc3c(N)ncnc32)cc1         %Inh            %               44
2  COc1ccc(Nc2nccc(N3CCC(NC(=O)c4cccc(NC(C)=O)c4)C3)n2)cc1 (centres unmarked)         %Inh            %               19
3  Cc1ccc(C)c(NC(=O)NCCNc2ccnc(Nc3ccc(F)cc3)n2)c1         %Inh            %               43
4  CCCc1ccc(S(=O)(=O)NC2CCN(c3ccnc(Nc4ccc(OC)cc4)n3)C2)cc1 (centres unmarked)         %Inh            %                0

// %Inh value for `Cl.c1ccc(Cn2ccc3cc(Nc4ncnc5ccccc45)ccc32)cc1` : 84

// %Inh value for `Clc1cc(Nc2ncnc3cc[nH]c23)ccc1OCc1ccccn1` : 76

// %Inh value for `OCCOCCn1ccc2ncnc(Nc3ccc(Oc4cccc(Cl)c4)c(Cl)c3)c21` : 89

// %Inh value for `Nc1nc(-c2ccccn2)c(-c2ccnc3ccccc23)s1` : 32

// %Inh value for `O=c1cc(N2CCOCC2)nc2n(Cc3cccc(Cl)c3)ccn12` : 13

// %Inh value for `CN1CCC(n2cnc(-c3ccc(F)cc3)c2-c2ccnc(NC3CCNCC3)n2)CC1` : 0

// %Inh value for `Cl.Cl.c1ccc(-c2cc3ccncc3cc2OC2CCNCC2)cc1` : 16

// %Inh value for `COc1cc2ncnc(Nc3ccc(OCc4ccccc4Br)c(Cl)c3)c2cc1OC.Cl` : 98.9

// %Inh value for `Nc1nc(-c2ccc3c(N)n[nH]c3c2)cc(N2CCCCC2)n1` : 8

// %Inh value for `N#Cc1ccc(Oc2ccc(Nc3ncnc4cc[nH]c34)cc2Cl)cc1` : 44

// %Inh value for `Clc1ccc(-c2cc(-c3c[nH]nc3-c3ccccn3)ccn2)cc1` : 0

// %Inh value for `CNc1nccc(-c2c(-c3ccc(F)cc3)ncn2C2CCN(C)CC2)n1` : 37

// %Inh value for `C[C@H]1CC[C@@H](C(=O)Nc2ccccc2)CN1c1cc(-c2ccc3c(N)n[nH]c3c2)nc(N)n1` : 11

// %Inh value for `C[C@@H]1CCN(C(=O)CO)C[C@@H]1N(C)c1ncnc2[nH]ccc12` : 12
